Target: UniProtKB P48736
Sequence (P48736 whole entry): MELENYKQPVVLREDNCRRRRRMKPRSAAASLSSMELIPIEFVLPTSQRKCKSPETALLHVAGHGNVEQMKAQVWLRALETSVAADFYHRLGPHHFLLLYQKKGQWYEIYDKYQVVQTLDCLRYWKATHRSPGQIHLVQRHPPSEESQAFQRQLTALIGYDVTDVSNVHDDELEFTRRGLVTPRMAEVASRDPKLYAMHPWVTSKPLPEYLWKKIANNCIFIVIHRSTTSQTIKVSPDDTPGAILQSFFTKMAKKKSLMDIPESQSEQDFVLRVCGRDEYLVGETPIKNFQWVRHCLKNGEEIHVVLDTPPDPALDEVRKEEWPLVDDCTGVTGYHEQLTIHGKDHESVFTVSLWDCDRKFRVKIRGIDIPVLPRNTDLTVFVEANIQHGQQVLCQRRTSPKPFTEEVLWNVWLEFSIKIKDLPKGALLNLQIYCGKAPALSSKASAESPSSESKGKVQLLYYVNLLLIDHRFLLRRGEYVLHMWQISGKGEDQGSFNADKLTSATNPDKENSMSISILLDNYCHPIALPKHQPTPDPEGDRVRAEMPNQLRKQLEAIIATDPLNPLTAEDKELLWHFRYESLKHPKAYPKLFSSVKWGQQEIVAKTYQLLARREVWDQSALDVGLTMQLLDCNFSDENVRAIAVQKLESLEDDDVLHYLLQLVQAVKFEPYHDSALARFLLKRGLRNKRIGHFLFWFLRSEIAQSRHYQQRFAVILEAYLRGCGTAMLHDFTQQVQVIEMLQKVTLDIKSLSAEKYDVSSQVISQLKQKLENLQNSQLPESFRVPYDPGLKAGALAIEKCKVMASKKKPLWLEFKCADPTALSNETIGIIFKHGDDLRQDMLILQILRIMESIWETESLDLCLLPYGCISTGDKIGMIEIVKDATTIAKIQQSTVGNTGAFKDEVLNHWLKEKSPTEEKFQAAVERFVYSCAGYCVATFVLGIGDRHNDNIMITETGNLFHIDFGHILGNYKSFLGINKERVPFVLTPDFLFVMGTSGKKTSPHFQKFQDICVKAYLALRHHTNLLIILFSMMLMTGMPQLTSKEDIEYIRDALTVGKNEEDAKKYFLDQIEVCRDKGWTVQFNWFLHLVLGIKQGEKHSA
measuredProperty: IC50 (nM)
Provide only the numeric value, understood in nM.

IN: Form field: IC50 recorded for O=C(Nc1ccc(-c2nc(N3CCOCC3)c3nnn(C4CCN(Cc5ccccc5)CC4)c3n2)cc1)Nc1cccc(Cl)c1 [Example 170] with UniProtKB P48736 (enter value)
OUT: 10400

IN: Form field: IC50 recorded for Cn1cncc1CN1CCC(n2nnc3c(N4CCOCC4)nc(-c4cncc(O)c4)nc32)CC1 [Example 24] with UniProtKB P48736 (enter value)
OUT: 219

IN: Form field: IC50 recorded for CCn1nnc2c(N3CCOCC3)nc(-c3ccc(NC(=O)Nc4ccc(C(=O)O)cc4)cc3)nc21 [Example 42] with UniProtKB P48736 (enter value)
OUT: 35.3

IN: Form field: IC50 recorded for Oc1cncc(-c2nc(N3CCOCC3)c3nnn(C4CCN(Cc5ccc(-c6ccncc6)cc5)CC4)c3n2)c1 [Example 31] with UniProtKB P48736 (enter value)
OUT: 2280

----------
Target: PI3 Kinase α (Homo sapiens, UniProt P42336)
Sequence (P42336 whole entry): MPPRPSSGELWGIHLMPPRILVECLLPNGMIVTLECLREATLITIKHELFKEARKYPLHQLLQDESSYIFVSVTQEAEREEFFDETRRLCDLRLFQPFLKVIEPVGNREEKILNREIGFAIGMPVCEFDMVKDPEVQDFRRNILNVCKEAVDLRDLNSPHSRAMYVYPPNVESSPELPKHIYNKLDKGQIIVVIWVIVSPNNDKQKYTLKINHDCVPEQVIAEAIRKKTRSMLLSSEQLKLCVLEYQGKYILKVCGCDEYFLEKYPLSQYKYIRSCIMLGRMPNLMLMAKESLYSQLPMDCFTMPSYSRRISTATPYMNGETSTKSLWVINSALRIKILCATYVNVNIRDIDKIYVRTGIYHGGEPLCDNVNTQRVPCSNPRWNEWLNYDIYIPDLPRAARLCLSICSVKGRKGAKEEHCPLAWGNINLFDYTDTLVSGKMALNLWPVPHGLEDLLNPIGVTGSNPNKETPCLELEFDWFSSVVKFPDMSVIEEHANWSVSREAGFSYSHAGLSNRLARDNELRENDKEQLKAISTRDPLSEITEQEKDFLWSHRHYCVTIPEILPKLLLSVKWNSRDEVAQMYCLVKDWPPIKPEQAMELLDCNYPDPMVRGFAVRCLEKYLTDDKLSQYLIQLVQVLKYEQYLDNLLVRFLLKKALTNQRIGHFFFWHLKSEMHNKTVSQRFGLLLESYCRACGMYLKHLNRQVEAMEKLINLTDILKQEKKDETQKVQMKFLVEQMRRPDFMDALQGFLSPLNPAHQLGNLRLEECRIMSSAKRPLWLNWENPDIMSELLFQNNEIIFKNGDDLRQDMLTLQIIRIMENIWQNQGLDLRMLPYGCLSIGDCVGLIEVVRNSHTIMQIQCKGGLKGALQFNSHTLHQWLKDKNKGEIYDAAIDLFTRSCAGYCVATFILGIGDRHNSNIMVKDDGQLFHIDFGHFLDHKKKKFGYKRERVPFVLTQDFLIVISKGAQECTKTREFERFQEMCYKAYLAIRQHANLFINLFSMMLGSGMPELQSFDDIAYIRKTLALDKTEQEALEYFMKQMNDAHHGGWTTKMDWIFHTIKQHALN
Sequence (P27986 whole entry partner): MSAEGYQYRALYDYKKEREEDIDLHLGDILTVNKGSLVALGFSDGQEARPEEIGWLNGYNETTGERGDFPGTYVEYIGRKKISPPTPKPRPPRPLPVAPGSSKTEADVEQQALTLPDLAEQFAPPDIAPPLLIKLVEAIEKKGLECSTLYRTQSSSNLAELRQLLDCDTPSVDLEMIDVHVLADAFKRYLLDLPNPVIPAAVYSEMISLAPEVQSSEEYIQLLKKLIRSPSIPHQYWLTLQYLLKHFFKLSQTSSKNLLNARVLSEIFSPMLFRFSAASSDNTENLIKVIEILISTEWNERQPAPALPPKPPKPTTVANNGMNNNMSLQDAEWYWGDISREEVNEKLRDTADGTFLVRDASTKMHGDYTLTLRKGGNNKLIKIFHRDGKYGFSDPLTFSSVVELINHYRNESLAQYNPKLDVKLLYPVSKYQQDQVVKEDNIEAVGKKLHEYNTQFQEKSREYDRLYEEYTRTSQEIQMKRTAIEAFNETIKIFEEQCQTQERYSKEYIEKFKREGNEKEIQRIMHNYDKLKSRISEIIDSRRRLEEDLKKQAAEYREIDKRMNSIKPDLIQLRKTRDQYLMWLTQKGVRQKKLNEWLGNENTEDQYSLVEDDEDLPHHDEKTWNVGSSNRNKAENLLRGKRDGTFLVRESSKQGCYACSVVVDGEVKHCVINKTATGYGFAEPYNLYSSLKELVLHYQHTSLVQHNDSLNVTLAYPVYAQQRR
measuredProperty: pIC50
Scale: negative log10 of molar concentration, which is what pIC50 denotes.

IN: // query pIC50 value for entry O=C(NCc1ccco1)c1ccc(Cn2nnc3c(N4CCOCC4)nc(-c4cccc(O)c4)nc32)cc1
OUT: 6.93

IN: // query pIC50 value for entry OCc1cccc(-c2nc(N3CCOCC3)c3nnn(-c4cccc(CO)c4)c3n2)c1
OUT: 7.42

IN: // query pIC50 value for entry CNC(=O)c1cccc(-n2nnc3c(N4CCOCC4)nc(-c4cccc(O)c4)nc32)c1
OUT: 7.44

IN: // query pIC50 value for entry O=C(Nc1ccc(-c2nc(N3CCOCC3)c3nnn(CC(F)(F)F)c3n2)cc1)Nc1cncnc1
OUT: 7.42

IN: // query pIC50 value for entry CN(C)c1ccc(NC(=O)Nc2ccc(-c3nc(N4CCOCC4)c4nnn(CC(F)(F)F)c4n3)cc2)cc1
OUT: 7.89

IN: // query pIC50 value for entry CNC(=O)Cn1nnc2c(N3CCOCC3)nc(-c3cccc(CO)c3)nc21
OUT: 6.25

IN: // query pIC50 value for entry Cn1cncc1CN1CCC(n2nnc3c(N4CCOCC4)nc(-c4cncc(O)c4)nc32)CC1
OUT: 7.07

IN: // query pIC50 value for entry CN(C)CCCCn1nnc2c(N3CCOCC3)nc(-c3cccc(O)c3)nc21
OUT: 6.65

----------
measuredProperty: log10 IC50 (log10 of the value in µM)
Values below are the log10 of the recorded IC50, with µM as the unit.

IN: Form field: log10 IC50 recorded for Oc1cncc(-c2nc(N3CCOCC3)c3nnn(C4CCN(Cc5ccc(-c6ccncc6)cc5)CC4)c3n2)c1 [Example 31] with PI3 Kinase α (Homo sapiens) (enter value)
OUT: -0.53

IN: Form field: log10 IC50 recorded for Oc1cncc(-c2nc(N3CCOCC3)c3nnn(C4CCN(Cc5ccc[nH]5)CC4)c3n2)c1 [Example 29] with PI3 Kinase α (Homo sapiens) (enter value)
OUT: 0.06

IN: Form field: log10 IC50 recorded for NC(=O)Cn1nnc2c(N3CCOCC3)nc(-c3cccc(CO)c3)nc21 [Example 237] with PI3 Kinase α (Homo sapiens) (enter value)
OUT: -0.34

IN: Form field: log10 IC50 recorded for COC(Cn1nnc2c(N3CCOCC3)nc(-c3ccc(N)cc3)nc21)OC [Example 178] with PI3 Kinase α (Homo sapiens) (enter value)
OUT: 0.13

IN: Form field: log10 IC50 recorded for CN(C)CCNC(=O)Nc1ccc(-c2nc(N3CCOCC3)c3nnn(C4CCN(Cc5ccc(F)nc5)CC4)c3n2)cc1 [Example 157] with PI3 Kinase α (Homo sapiens) (enter value)
OUT: -1.21

IN: Form field: log10 IC50 recorded for O=C(Nc1ccc(-c2nc(N3CCOCC3)c3nnn(CCO)c3n2)cc1)Nc1cccnc1 [Example 184] with PI3 Kinase α (Homo sapiens) (enter value)
OUT: -1.70

IN: Form field: log10 IC50 recorded for CN(C)CCNC(=O)Nc1ccc(-c2nc(N3CCOCC3)c3nnn(C4CCN(Cc5ccccc5)CC4)c3n2)cc1 [Example 4] with PI3 Kinase α (Homo sapiens) (enter value)
OUT: -1.18

IN: Form field: log10 IC50 recorded for CCn1nnc2c(N3CCOCC3)nc(-c3ccc(N)cc3)nc21 [Example 32] with PI3 Kinase α (Homo sapiens) (enter value)
OUT: -0.26
